Known log10(IC50) of a selection of molecules
Test system: HeLa
Experiment: MTT cytotoxicity assay, HeLa
Settings: Homo sapiens, 24 h, read-out: In Vitro Cytotoxicity IC50 HeLa
Please interpret these as log10 of IC50 where IC50 is in µM.

Cc1ccc2c(c1)/C(=N\Nc1ncnc3[nH]cnc13)C(=O)N2 [Compound 14]; 1.64

The molecule identified as O=C1Nc2ccc([N+](=O)[O-])cc2C1=NNC(=O)c1ccc(Nc2ncnc3[nH]cnc23)cc1 [Compound 9] registered its log10(IC50) at 1.93

// log10(IC50) lookup, molecule = O=C1Nc2ccc(F)cc2/C1=N\Nc1ncnc2[nH]cnc12 [Compound 13] , result: 1.71

// field: log10(IC50); key: COc1ccc2c(c1)/C(=N\Nc1ncnc3[nH]cnc13)C(=O)N2 [Compound 15] ; value = 0.95

The molecule listed as O=C1Nc2ccc(Cl)cc2/C1=N\Nc1ncnc2[nH]cnc12 [Compound 12] has a reported log10(IC50) of 1.67

Please fill in: log10(IC50) reported for CCN(CC)CCNC(=O)c1c(C)[nH]c(/C=C2\C(=O)Nc3ccc(F)cc32)c1C [Sunitinib, reference compound] = 0.87

Documented log10(IC50) of O=C1Nc2ccc(F)cc2C1=NNC(=O)c1ccc(Nc2ncnc3[nH]cnc23)cc1 [Compound 6] : 1.49

molecule O=C1Nc2ccccc2C1=NNC(=O)c1ccc(Nc2ncnc3[nH]cnc23)cc1 [Compound 4] , log10(IC50) observed: 1.80

* * *

Measured melting point values are reported for all entries that follow.

Guide cases for melting point, answers given:
O=C1Nc2ccc([N+](=O)[O-])cc2/C1=N\Nc1ncnc2[nH]cnc12 [Compound 16]; > 300 °C
O=C1Nc2ccccc2/C1=N\Nc1ncnc2[nH]cnc12 [Compound 11]; > 300 °C
O=C1Nc2ccccc2C1=NNC(=O)c1ccc(Nc2ncnc3[nH]cnc23)cc1 [Compound 4]; > 300 °C
COc1ccc2c(c1)C(=NNC(=O)c1ccc(Nc3ncnc4[nH]cnc34)cc1)C(=O)N2 [Compound 8]; > 300 °C

Then this molecule:
Just so you know, measured melting point for Cc1ccc2c(c1)/C(=N\Nc1ncnc3[nH]cnc13)C(=O)N2 [Compound 14] came out at 294 to 296 °C

* * *

System: HeLa
Experiment: MTT cytotoxicity assay, HeLa
Settings: Homo sapiens, 24 h, read-out: In Vitro Cytotoxicity IC50 HeLa
Below, each entry is listed with its recorded IC50.
Reply numerically in µM, unit not repeated.

The observed IC50 for O=C1Nc2ccc([N+](=O)[O-])cc2/C1=N\Nc1ncnc2[nH]cnc12 when tested with HeLa stands at 69.5

Item COc1ccc2c(c1)C(=NNC(=O)c1ccc(Nc3ncnc4[nH]cnc34)cc1)C(=O)N2 was tested on HeLa; the reported IC50 is 53.5

Tested on HeLa, the item O=C1Nc2ccccc2/C1=N\Nc1ncnc2[nH]cnc12 showed IC50 equal to 17.6
